Reference source: ChEMBL document CHEMBL5303304

Test system: HEK-293T
Assay: Incucyte cell viability with HEK293T; further: unitless GR value; below 1 slowed growth and below 0 cell loss
Assay type: toxicity, cell-based
Conditions: human, 12 h, 10 µM, compound concentration 10 uM, replicate number 1
ASSAY READOUT: Growth Rate
Output spec: single numeric token, no unit.

- COMPOUND: "O=C(Cc1ccccc1)Nc1nnc(N2C[C@H]3C[C@@H]2CN3c2cccnn2)s1"
  SYSTEM TESTED: "HEK-293T"
  VALUE: 0.83
- COMPOUND: "CC(C)n1cnc2c(Nc3cccc(Cl)c3)nc(N[C@H]3CCCC[C@@H]3N)nc21"
  SYSTEM TESTED: "HEK-293T"
  VALUE: -0.82
- COMPOUND: "O=C(CNC(=O)c1ccc(-c2ccccc2)cc1)NC1CCCc2ccccc21 (stereo not given)"
  SYSTEM TESTED: "HEK-293T"
  VALUE: -0.08
- COMPOUND: "O=C(Nc1c[nH]nc1-c1nc2cc(CN3CCOCC3)ccc2[nH]1)NC1CC1"
  SYSTEM TESTED: "HEK-293T"
  VALUE: -0.57
- COMPOUND: "Cc1cc(-c2ccnc(Nc3cnn(C)c3)n2)ccc1CNC(=O)N1CC(OC(C)C)C1"
  SYSTEM TESTED: "HEK-293T"
  VALUE: 0.72
- COMPOUND: "CC(C)(O)c1ccc2c(c1)ncn2-c1cccc(-c2ccccc2C#N)c1"
  SYSTEM TESTED: "HEK-293T"
  VALUE: 0.77
- COMPOUND: "c1ccc(C(OC2CCN(CCCc3nnn[nH]3)CC2)c2ccccc2)cc1"
  SYSTEM TESTED: "HEK-293T"
  VALUE: 0.7
- COMPOUND: "CC(CNS(=O)(=O)C(C)C)c1ccc(-c2ccc(C#N)cc2)cc1 (stereo not given)"
  SYSTEM TESTED: "HEK-293T"
  VALUE: -0.18

Problem: Give its Growth Rate value. Item: CN(C)[C@H]1CCN(c2cc(C(F)(F)F)c(C#N)c(Nc3cccc(CCC(=O)O)c3)n2)C1.O=C(O)C(F)(F)F
Result: 0.95

Problem: Give its Growth Rate value. Item: Cc1nnsc1C(=O)Nc1ccc(-n2nc(C(F)(F)F)cc2C(F)(F)F)cc1
Result: 0.96

Problem: Give its Growth Rate value. Item: CCN1CCN(Cc2ccc(Nc3ncc(F)c(-c4cc(F)c5nc(C)n(C(C)C)c5c4)n3)nc2)CC1.CS(=O)(=O)O
Result: 0.36

Problem: Give its Growth Rate value. Item: CNc1nc(-c2cc(C(=O)N3CCN(Cc4ccc(Cl)cc4)CC3)c(Cl)cn2)cs1
Result: 0.62

Problem: Give its Growth Rate value. Item: CNC(=O)COc1cc2cc(Nc3nc(N4CCC(C(=O)N(C)C)CC4)ncc3Cl)cc(OC)c2n(C)c1=O
Result: 0.74

Problem: Give its Growth Rate value. Item: COc1cc(C(=O)N2CC[C@@H](O)[C@@H](N)C2)cc2nc(-c3cc4ccccc4n3CC3CC3)n(C)c12.Cl
Result: 0.73

Problem: Give its Growth Rate value. Item: CCCCC[C@H](O)/C=C/[C@H]1[C@H](O)CC(=O)[C@@H]1CCCCCCC(=O)O
Result: 0.82

Problem: Give its Growth Rate value. Item: COc1c(OCCCN2CCOCC2)ccc2c1N=C(NC(=O)c1cnc(N)nc1)N1CCN=C21
Result: 0.15

Problem: Give its Growth Rate value. Item: COC[C@@H](CC(C)C)NC1=N/C(=C\c2ccc3ncsc3c2)C(=O)N1C
Result: -0.18

Problem: Give its Growth Rate value. Item: O=C(Nc1ccc(Cl)nc1)c1ccc(Cl)cc1
Result: 0.71

Problem: Give its Growth Rate value. Item: Oc1cccc(Nc2ccnc3[nH]c4ccccc4c23)c1
Result: -0.75

Problem: Give its Growth Rate value. Item: COc1ccc(Cl)cc1[C@]1(F)C(=O)Nc2cc(C(F)(F)F)ccc21
Result: 0.58

Problem: Give its Growth Rate value. Item: O=C(Cc1ccccc1[N+](=O)[O-])Nc1ccc(-c2ccc(C(O)(C(F)(F)F)C(F)(F)F)cc2F)cc1
Result: 0.73

Problem: Give its Growth Rate value. Item: Cc1nc2c([nH]1)c(=O)n(C)c(=O)n2Cc1ccco1
Result: 0.18

Problem: Give its Growth Rate value. Item: CC(C)Nc1ncnc2cc(OCc3cccc([S@@](C)(=N)=O)c3)c(Br)cc12
Result: 0.67

Problem: Give its Growth Rate value. Item: Cc1ccc2c(N)c(C(=O)NC3CCc4cc(N5CC6CCC(C5)N6)ccc4C3)sc2n1.O=CO (stereo not given)
Result: -0.47

Problem: Give its Growth Rate value. Item: Cn1cc(-c2ccc(N(C(=O)NCc3ccccc3)[C@H]3CC[C@H](Nc4ccc(C#N)cn4)CC3)cc2)ccc1=O
Result: -0.28

Problem: Give its Growth Rate value. Item: CC[C@H](NC(=O)[C@H](C)NC)C(=O)N1C[C@@H](O)C[C@H]1Cc1c(-c2[nH]c3cc(F)ccc3c2C[C@@H]2C[C@H](O)CN2C(=O)[C@H](CC)NC(=O)[C@H](C)NC)[nH]c2cc(F)ccc12
Result: 0.62

Problem: Give its Growth Rate value. Item: C=CC(=O)Nc1cccc(C)c1Nc1ncc2cc(-c3c(Cl)c(OC)cc(OC)c3Cl)ccc2n1
Result: -0.35
